Just for reference, patent US12146004B2 is where these values come from.

# System: Klebsiella pneumoniae
# Format: cell-based
Bridge positions count the residues as written; N and C are the ends. Square brackets hold non-standard residues; d marks the D form. Peptide text beside a SMILES is read from it. * marks the point of attachment. dCha = N[C@H](CC1CCCCC1)C(=O)O; X15 = NCCC(CC1CCCC1)C(=O)*; X24 = NCCC(Cc1ccsc1)C(=O)*; Dab = NCC[C@H](N)C(=O)O; Dap = NC[C@H](N)C(=O)O
Reported MIC K. pneumoniae 063 values for a set of compounds

{"columns": ["compound", "target_or_system", "MIC K. pneumoniae 063 (µg/mL)"],
 "data": [
  ["CC(C)C[C@@H]1NC(=O)[C@@H](CC2CCCCC2)NC(=O)[C@H](CCN)NC(=O)[C@@H](NC(=O)[C@H](CCN)NC(=O)[C@@H](NC(=O)C(CCN)CC2CCCC2)[C@@H](C)O)CCNC(=O)[C@H]([C@@H](C)O)NC(=O)[C@H](CCN)NC(=O)[C@H](CCN)NC1=O (stereo partly drawn) [Example 83] (X15-T[Dab][Dab][Dab][dCha]L[Dab][Dab]T; lactam 3-C)", "Klebsiella pneumoniae", 16],
  ["CC(C)C[C@@H]1NC(=O)[C@@H](CC2CCCCC2)NC(=O)[C@H](CCN)NC(=O)[C@@H](NC(=O)[C@H](CN)NC(=O)[C@@H](NC(=O)C(CCN)CC2CCCC2)[C@@H](C)O)CCNC(=O)[C@H]([C@@H](C)O)NC(=O)[C@H](CCN)NC(=O)[C@H](CCN)NC1=O (stereo partly drawn) [Example 75] (X15-T[Dap][Dab][Dab][dCha]L[Dab][Dab]T; lactam 3-C)", "Klebsiella pneumoniae", 16],
  ["CC(C)C[C@@H]1NC(=O)[C@@H](CC2CCCCC2)NC(=O)[C@H](CCN)NC(=O)[C@@H](NC(=O)[C@H](CN)NC(=O)[C@@H](NC(=O)C(CCN)Cc2ccsc2)[C@@H](C)O)CCNC(=O)[C@H]([C@@H](C)O)NC(=O)[C@H](CCN)NC(=O)[C@H](CCN)NC1=O (stereo partly drawn) [Example 68] (X24-T[Dap][Dab][Dab][dCha]L[Dab][Dab]T; lactam 3-C)", "Klebsiella pneumoniae", 16]
]}

====

# Tested on: Escherichia coli
# Format: cell-based
Numbered stars: 1 amine (or outer) side, 2 acyl side, 3 side chain; on linkers, the order of the positions; unused ones are H or OH. Bridge positions count the residues as written; N and C are the ends. Square brackets hold non-standard residues; d marks the D form. Peptide text beside a SMILES is read from it. * marks the point of attachment. ξ: configuration not given here. X5 = CCCCCCCCc1ccc(C[C@@H](N[*:1])C(=O)[*:2])cc1; dBip = N[C@H](Cc1ccc(-c2ccccc2)cc1)C(=O)O; X14 = CC(C)c1ccc(CO[C@@H](CCN)C(=O)*)cc1; X29 = Cc1ccc(CO[C@@H](CN)C(=O)*)cc1; Octanoyl(6-Me) = CCC(C)CCCCC(=O)*; X3 = CCCCCCCCN1CCNC[C@H]1C(=O)*; dCha = N[C@H](CC1CCCCC1)C(=O)O; Thr(3ξ) = CC(O)[C@H](N)C(=O)O; Dab = NCC[C@H](N)C(=O)O; Dap = NC[C@H](N)C(=O)O
Reported MIC E. coli 058 values for a set of compounds

{"columns": ["compound", "MIC E. coli 058 / µg/mL"],
 "data": [
  ["Cc1ccc(CO[C@@H](CN)C(=O)N[C@H](C(=O)N[C@@H](CN)C(=O)N[C@H]2CCNC(=O)[C@H]([C@@H](C)O)NC(=O)[C@H](CCN)NC(=O)[C@H](CCN)NC(=O)[C@H](CC(C)C)NC(=O)[C@@H](CC3CCCCC3)NC(=O)[C@H](CCN)NC2=O)[C@@H](C)O)cc1 [Example 78] (X29-T[Dap][Dab][Dab][dCha]L[Dab][Dab]T; lactam 3-C)", 4],
  ["CCCCCCCCN1CCNC[C@H]1C(=O)N[C@H](C(=O)N[C@@H](CN)C(=O)N[C@H]1CCNC(=O)[C@H]([C@@H](C)O)NC(=O)[C@H](CCN)NC(=O)[C@H](CCN)NC(=O)[C@H](CC(C)C)NC(=O)[C@@H](Cc2ccc(-c3ccccc3)cc2)NC(=O)[C@H](CCN)NC1=O)C(C)O (stereo partly shown) [Example 30] (X3-[Thr(3ξ)][Dap][Dab][Dab][dBip]L[Dab][Dab]T; lactam 3-C)", 1],
  ["CC(C)C[C@@H]1NC(=O)[C@@H](CC2CCCCC2)NC(=O)[C@H](CCN)NC(=O)[C@@H](NC(=O)[C@H](CN)NC(=O)[C@@H](NC(=O)C(CCN)OCc2cccc(Cl)c2)[C@@H](C)O)CCNC(=O)[C@H]([C@@H](C)O)NC(=O)[C@H](CCN)NC(=O)[C@H](CCN)NC1=O (single isomer, unassigned; isomer 1) [Example 82]", 2],
  ["CCC(C)CC(CCN)C(=O)N[C@H](C(=O)N[C@@H](CN)C(=O)N[C@H]1CCNC(=O)[C@H]([C@@H](C)O)NC(=O)[C@H](CCN)NC(=O)[C@H](CCN)NC(=O)[C@H](CC(C)C)NC(=O)[C@@H](CC2CCCCC2)NC(=O)[C@H](CCN)NC1=O)C(C)O (single isomer, unassigned; isomer 2) [Example 47]", 4],
  ["CC(C)CC(CN)C(=O)N[C@H](C(=O)N[C@@H](CN)C(=O)N[C@H]1CCNC(=O)[C@H]([C@@H](C)O)NC(=O)[C@H](CCN)NC(=O)[C@H](CCN)NC(=O)[C@H](CC(C)C)NC(=O)[C@@H](Cc2ccc(Br)cc2)NC(=O)[C@H](CCN)NC1=O)C(C)O (single isomer, unassigned; isomer 1) [Example 13]", 32],
  ["CC(C)CC1CNCC(C(=O)N[C@H](C(=O)N[C@@H](CN)C(=O)N[C@H]2CCNC(=O)[C@H]([C@@H](C)O)NC(=O)[C@H](CCN)NC(=O)[C@H](CCN)NC(=O)[C@H](CC(C)C)NC(=O)[C@@H](Cc3ccc(Br)cc3)NC(=O)[C@H](CCN)NC2=O)C(C)O)C1 (single isomer, unassigned; isomer 1) [Example 11]", 16],
  ["CC(C)C[C@@H]1NC(=O)[C@@H](CC2CCCCC2)NC(=O)[C@H](CCN)NC(=O)[C@@H](NC(=O)[C@H](CN)NC(=O)[C@@H](NC(=O)C(CCN)Cc2ccccc2)C(C)O)CCNC(=O)[C@H]([C@@H](C)O)NC(=O)[C@H](CCN)NC(=O)[C@H](CCN)NC1=O (single isomer, unassigned; isomer 2) [Example 35]", 4],
  ["CCCCCCCCc1ccc(C[C@H]2NC(=O)[C@H](CCN)NC(=O)[C@@H](NC(=O)[C@H](CN)NC(=O)[C@@H](NC(=O)[C@@H](N)CCN)C(C)O)CCNC(=O)[C@H]([C@@H](C)O)NC(=O)[C@H](CCN)NC(=O)[C@H](CCN)NC(=O)[C@H](CC(C)C)NC2=O)cc1 (stereo partly shown) [Example 29] (H-[Dab][Thr(3ξ)][Dap][Dab][Dab][X5]L[Dab][Dab]T; lactam 4-C)", 32],
  ["CC(C)C[C@@H]1NC(=O)[C@@H](CC2CCCCC2)NC(=O)[C@H](CCN)NC(=O)[C@@H](NC(=O)[C@H](CCN)NC(=O)[C@@H](NC(=O)C(CCN)Cc2ccccc2)C(C)O)CCNC(=O)[C@H]([C@@H](C)O)NC(=O)[C@H](CCN)NC(=O)[C@H](CCN)NC1=O (single isomer, unassigned; isomer 2) [Example 36]", 8],
  ["CCCCCC/C=C/c1ccc(C[C@H]2NC(=O)[C@H](CCN)NC(=O)[C@@H](NC(=O)[C@H](CN)NC(=O)[C@@H](NC(=O)C3CNCC(CC(C)C)C3)C(C)O)CCNC(=O)[C@H]([C@@H](C)O)NC(=O)[C@H](CCN)NC(=O)[C@H](CCN)NC(=O)[C@H](CC(C)C)NC2=O)cc1 (single isomer, unassigned; isomer 2) [Example 18]", 2],
  ["CC(C)C[C@@H]1NC(=O)[C@@H](CC2CCCCC2)NC(=O)[C@H](CCN)NC(=O)[C@@H](NC(=O)[C@H](CN)NC(=O)[C@@H](NC(=O)CCC(N)c2ccccc2)[C@@H](C)O)CCNC(=O)[C@H]([C@@H](C)O)NC(=O)[C@H](CCN)NC(=O)[C@H](CCN)NC1=O (single isomer, unassigned; isomer 1) [Example 60]", 16],
  ["CC(C)C[C@@H]1NC(=O)[C@@H](CC2CCCCC2)NC(=O)[C@H](CCN)NC(=O)[C@@H](NC(=O)[C@H](CN)NC(=O)[C@@H](NC(=O)[C@H](CCN)OCc2ccc(C(C)C)cc2)[C@@H](C)O)CCNC(=O)[C@H]([C@@H](C)O)NC(=O)[C@H](CCN)NC(=O)[C@H](CCN)NC1=O [Example 88] (X14-T[Dap][Dab][Dab][dCha]L[Dab][Dab]T; lactam 3-C)", 2],
  ["CCC(C)CCCCC(=O)N[C@@H](CCN)C(=O)N[C@H](C(=O)N[C@@H](CCN)C(=O)N[C@H]1CCNC(=O)[C@H]([C@@H](C)O)NC(=O)[C@H](CCN)NC(=O)[C@H](CCN)NC(=O)[C@H](CC(C)C)NC(=O)[C@@H](Cc2ccc(-c3ccccc3)cc2)NC(=O)[C@H](CCN)NC1=O)C(C)O (stereo partly shown) [Example C3, reference compound] ({Octanoyl(6-Me)}-[Dab][Thr(3ξ)][Dab][Dab][Dab][dBip]L[Dab][Dab]T; lactam 4-C)", 2]
]}
